log10 IC50 by entry:
# MEASUREMENT TARGET: human LPA1 (Homo sapiens, UniProt Q92633)
# Construct: expressed in transfected cells; host or cells: CHO-K1
# Sequence (Q92633 whole entry): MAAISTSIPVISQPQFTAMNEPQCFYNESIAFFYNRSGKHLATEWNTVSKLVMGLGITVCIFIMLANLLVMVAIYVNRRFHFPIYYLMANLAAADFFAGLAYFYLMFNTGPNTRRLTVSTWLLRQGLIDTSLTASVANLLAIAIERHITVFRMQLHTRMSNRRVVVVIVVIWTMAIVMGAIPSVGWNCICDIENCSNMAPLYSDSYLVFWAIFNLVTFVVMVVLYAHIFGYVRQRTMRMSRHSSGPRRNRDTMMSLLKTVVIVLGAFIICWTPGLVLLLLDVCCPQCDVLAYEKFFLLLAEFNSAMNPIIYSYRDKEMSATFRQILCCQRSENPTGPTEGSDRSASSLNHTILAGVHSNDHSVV
# ASSAY INFO: In vitro LPA1 calcium flux antagonist assay, Bioduro protocol
# Type: cell-based
# STUDY CONDITIONS: CHO-K1 cells overexpressing human LPA1 and G15a; LPA challenge at EC80; calcium mobilization on FLIPR Tetra; read-out: IC50 (nM) in Assay B2
Parameter value (number): base-10 log of IC50 in nM.

# example entries with known answers
> print(dat)
                                    compound                        measurement.target  observed.result
 1  COc1cc([C@@H](O)[C@H](Cn2cc3nccc(C(=O)O)c3n2)OC2CCCC2)cc(OC)c1Br [Compound 224]  human LPA1 (Homo sapiens, UniProt Q92633)             2.51
 2  COc1cc([C@@H](O)[C@H](Cn2cc3ccc(F)c(C(=O)O)c3n2)OC2CCCC2)cc(OC)c1C [Compound 155]  human LPA1 (Homo sapiens, UniProt Q92633)             2.49
 3  COc1cc(C(=O)O)n2nc(C[C@H](OC3CCCC3)[C@H](O)c3cc(OC)c(C)cc3C)cc2c1 [Compound 238]  human LPA1 (Homo sapiens, UniProt Q92633)             1.73
 4  COc1cc([C@@H](O)[C@H](Cn2cc3cc(C(F)F)cc(C(=O)O)c3n2)OC2CCCC2)cc(OC)c1C [Compound 162]  human LPA1 (Homo sapiens, UniProt Q92633)             0.59
 5  COc1cc([C@@H](O)[C@H](Cn2cc3nc(Cl)cc(C(=O)O)c3n2)OC2CCCC2)cc(OC)c1C [Compound 198]  human LPA1 (Homo sapiens, UniProt Q92633)             0.84
 6  CCCCc1sc(C[C@H](OC2CCCC2)[C@H](O)c2cc(OC)c(C)c(OC)c2)nc1CC(=O)O [Compound 259]  human LPA1 (Homo sapiens, UniProt Q92633)             1.50
 7  CCCc1sc(C[C@H](OCC(C)C)[C@H](O)c2cc(OC)c(C)c(OC)c2)nc1C(C)C(=O)O (stereo partly drawn) [Compound 267]  human LPA1 (Homo sapiens, UniProt Q92633)             2.01
 8  COc1cc([C@@H](O)[C@H](Cn2cc3cccc(C(=O)O)c3n2)OC2CCC(F)(F)CC2)cc(OC)c1C [Compound 149]  human LPA1 (Homo sapiens, UniProt Q92633)             2.48
 9  COc1c(C)ccc([C@@H](O)[C@H](Cn2cc3nccc(C(=O)O)c3n2)OC2CCCC2)c1C [Compound 192]  human LPA1 (Homo sapiens, UniProt Q92633)             3.05
10  COc1cc([C@@H](O)[C@H](Cn2cc3cc(C4CC4)nc(C(=O)O)c3n2)OC2CCCC2)cc(OC)c1C [Compound 231]  human LPA1 (Homo sapiens, UniProt Q92633)             1.05

Identify measured log10 IC50 corresponding to COc1cc([C@@H](O)[C@H](Cn2cc3cc(C(N)=O)cc(C(=O)O)c3n2)OC2CCCC2)cc(OC)c1C [Compound 221]
1.96

Identify measured log10 IC50 corresponding to COc1cc([C@@H](O)[C@H](Cn2cc3cc(C#N)cc(C(=O)O)c3n2)OCC(C)C)cc(OC)c1C [Compound 232]
1.43

Identify measured log10 IC50 corresponding to COc1cc([C@@H](O)[C@H](Cn2cc3cc(C4CC4)cc(C(=O)O)c3n2)OC2CCCC2)cc(OC)c1C [Compound 166]
0.69

Identify measured log10 IC50 corresponding to COc1cc([C@@H](O)[C@H](Cn2cc3cccc(C(=O)O)c3n2)OCC(C)C)cc(OC)c1C [Compound 146]
1.57

Identify measured log10 IC50 corresponding to CCc1sc(C[C@H](OC2CCCC2)[C@H](O)c2cc(OC)c(C)c(OC)c2)nc1CC(=O)O [Compound 178]
1.87

---

# MEASUREMENT TARGET: human LPA1 (Homo sapiens, UniProt Q92633)
# Construct: expressed in transfected cells; host or cells: CHO-K1
# ASSAY INFO: In vitro LPA1 calcium flux antagonist assay, Bioduro protocol
# Format: cell-based
# STUDY CONDITIONS: CHO-K1 cells overexpressing human LPA1 and G15a; LPA challenge at EC80; calcium mobilization on FLIPR Tetra; read-out: IC50 (nM) in Assay B2
ASSAY ENDPOINT: log10 IC50 (log10 of the value in nM)
Parameter value (number): base-10 log of IC50 in nM.

> print(dat)
                               smiles.entry  observed.result
1  Cc1ccc([C@@H](O)[C@H](Cn2cc3cccc(C(=O)O)c3n2)OC2CCCC2)cc1OC(F)(F)F             2.16
2  COc1cc(C(=O)O)c2nn(C[C@H](OC3CCCC3)[C@H](O)c3cc(OC)c(C)c(OC)c3)cc2c1             1.08
3  COc1cc([C@@H](O)[C@H](Cc2cn3nccc(C(=O)O)c3n2)OC2CCCC2)cc(OC)c1C             2.48
4  CCc1cc(C(=O)O)c2nc(C[C@H](OCC(C)C)[C@H](O)c3cc(OC)c(C)c(OC)c3)sc2c1             0.95
5  COc1cc([C@@H](O)[C@H](Cn2cc3nccc(C(=O)O)c3n2)OCCc2ccccc2)cc(OC)c1C             1.38

Identify measured log10 IC50 corresponding to CCCc1cc(C(=O)O)c2nn(C[C@H](OC3CCCC3)[C@H](O)c3cc(OC)c(C)c(OC)c3)cc2n1
1.31

---

# MEASUREMENT TARGET: human LPA1 (Homo sapiens, UniProt Q92633)
# Construct: expressed in transfected cells; host or cells: CHO-K1
# ASSAY INFO: In vitro LPA1 calcium flux antagonist assay, Bioduro protocol
# Type: cell-based
# STUDY CONDITIONS: CHO-K1 cells overexpressing human LPA1 and G15a; LPA challenge at EC80; calcium mobilization on FLIPR Tetra; read-out: IC50 (nM) in Assay B2
IC50 by entry:
State just the number; it will be interpreted in nM.

# example entries with known answers
> print(dat)
                                   molecule  observed.result
1  COc1cc([C@@H](O)[C@H](Cn2cc3nc(C)cc(C(=O)O)c3n2)OC2CCCC2)cc(OC)c1C [Compound 194]             26.9
2  COc1cc([C@@H](O)[C@H](Cn2cc3nc(C(N)=O)cc(C(=O)O)c3n2)OC2CCCC2)cc(OC)c1C [Compound 222]             43.4

Identify measured IC50 corresponding to COC(=O)Cc1nc(CC(OC2CCCC2)[C@H](O)c2cc(OC)c(C)c(OC)c2)sc1C(=O)O (stereo partly shown) [Compound 210]
7810

Identify measured IC50 corresponding to COc1cc([C@@H](O)[C@H](Cn2cc3cc(Cl)cc(C(=O)O)c3n2)OC2CCCC2)ccc1C(F)F [Compound 173]
6.09

Identify measured IC50 corresponding to COc1cc([C@@H](O)[C@H](Cc2cc3c(C(=O)O)cccc3s2)OC2CCCC2)cc(OC)c1C [Compound 265]
22.7

---

# MEASUREMENT TARGET: human LPA1 (Homo sapiens, UniProt Q92633)
# Construct: expressed in transfected cells; host or cells: CHO-K1
# ASSAY INFO: In vitro LPA1 calcium flux antagonist assay, Bioduro protocol
# Type: cell-based
# STUDY CONDITIONS: CHO-K1 cells overexpressing human LPA1 and G15a; LPA challenge at EC80; calcium mobilization on FLIPR Tetra; read-out: IC50 (nM) in Assay B2
ASSAY ENDPOINT: log10 of IC50 (log10 of the value in nM)
Parameter value (number): base-10 log of IC50 in nM.

Identify measured log10 of IC50 corresponding to COc1cc([C@@H](O)[C@H](Cn2cc3c(C(F)(F)F)ccc(C(=O)O)c3n2)OC2CCCC2)cc(OC)c1C [Compound 186]
3.88

Identify measured log10 of IC50 corresponding to COc1cc([C@@H](O)[C@H](Cn2cc3nccc(C(=O)O)c3n2)OC2CCCC2)c(Cl)c(OC)c1C [Compound 202]
3.63

Identify measured log10 of IC50 corresponding to CCc1cc(C(=O)O)n2nc(C[C@H](OC3CCCC3)[C@H](O)c3cc(OC)c(C)c(OC)c3)cc2c1 [Compound 251]
1.57

Identify measured log10 of IC50 corresponding to COc1cc([C@@H](O)[C@H](Cc2cc3cc(C)cc(C(=O)O)n3n2)OCC(C)C)cc(OC)c1C [Compound 252]
1.39

Identify measured log10 of IC50 corresponding to COc1cc([C@@H](O)[C@H](Cn2cc3nccc(C(=O)O)c3n2)OCCc2ccc(F)cc2)cc(OC)c1C [Compound 187]
2.12

Identify measured log10 of IC50 corresponding to COc1cc([C@@H](O)[C@H](Cc2nc3c(C(=O)O)cc(Cl)cc3s2)OC2CCCC2)cc(OC)c1C [Compound 246]
0.22

Identify measured log10 of IC50 corresponding to COc1cc([C@@H](O)[C@H](Cc2nc3c(C(=O)O)cc(F)cc3s2)OC2CCCC2)cc(OC)c1C [Compound 266]
0.86

Identify measured log10 of IC50 corresponding to COc1c(C)ccc([C@@H](O)[C@H](Cn2cc3nccc(C(=O)O)c3n2)OC2CCCC2)c1F [Compound 193]
2.88

Values were extracted from patent US20240018102A1.
